Values were extracted from patent US20170355757A1.

# reported AGM CP % Max Inhibition, hemolysis assay, 5% serum; entries follow
- target: African green monkey C5 (African green monkey)
- experimentNotes: cell-based or functional assay
Enter your answer as a number in %; do not include the unit.

binder	result
H4H12166P (antibody, V domains shown) VH: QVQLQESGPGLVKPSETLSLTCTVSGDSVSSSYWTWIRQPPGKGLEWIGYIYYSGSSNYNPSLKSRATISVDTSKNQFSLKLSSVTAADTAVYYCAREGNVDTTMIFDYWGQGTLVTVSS VL: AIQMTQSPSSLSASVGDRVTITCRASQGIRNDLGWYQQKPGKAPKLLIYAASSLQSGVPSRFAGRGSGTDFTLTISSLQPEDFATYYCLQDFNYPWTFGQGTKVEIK	81

Next, consider the following binder.
Data request: Please report the measured AGM CP % Max Inhibition, hemolysis assay, 5% serum for H4H12161P (antibody, human IgG4, V domains shown, H4H: human IgG4 Fc with S108P hinge mutation) VH: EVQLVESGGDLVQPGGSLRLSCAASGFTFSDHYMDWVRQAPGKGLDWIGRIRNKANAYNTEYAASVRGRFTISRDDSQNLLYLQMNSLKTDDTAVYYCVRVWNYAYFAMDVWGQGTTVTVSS VL: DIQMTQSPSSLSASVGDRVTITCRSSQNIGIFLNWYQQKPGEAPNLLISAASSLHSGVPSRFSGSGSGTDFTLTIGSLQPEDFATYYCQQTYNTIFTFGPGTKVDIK
Data returned: 78.9
